Test system: PBMC
Assay: Inhibition of IL1 release in human PBMC
Assay type: functional, cell-based
measured.endpoint: pIC50
The meaning of pIC50 here: minus log10 of the concentration in molar units.

Query: Could you share what pIC50 was measured for C[S+]([O-])c1ccc(CSc2nc(-c3ccc(F)cc3)c(-c3ccncc3)[nH]2)cc1 (stereo unspecified) , tested on PBMC?
Response: 6.06

====

Notes on ΔTm obtained with Serine/threonine-protein kinase VRK1 (Homo sapiens).
Give me the value, and tack the unit on after it.

Query: Return reported ΔTm; argument: Cc1cc(C=C2C(=O)C=CC2=O)cc(C)c1O
Response: -3.1 °C

Query: Return reported ΔTm; argument: CC(C)n1cnc2c(NCc3ccccc3O)nc(NCCCO)nc21
Response: 0 °C

Query: Return reported ΔTm; argument: Cn1cnc2c(NCc3ccccc3)nc(NCCO)nc21 [OLOMOUCINE]
Response: 0.4 °C

Query: Return reported ΔTm; argument: O=C1Nc2ccccc2/C1=C\c1ccc[nH]1
Response: 0.3 °C

Query: Return reported ΔTm; argument: CC(C)N(CCO)c1nc(Nc2cccc(Cl)c2)c2ncn(C(C)C)c2n1
Response: 0.5 °C

Query: Return reported ΔTm; argument: Oc1cccc(-c2nc(N3CCOCC3)c3oc4ncccc4c3n2)c1
Response: -0.1 °C

Query: Return reported ΔTm; argument: O=c1c(-c2ccc(O)cc2)coc2cc(O)cc(O)c12
Response: 0.6 °C

Query: Return reported ΔTm; argument: O=c1c(O)c(-c2ccc(O)c(O)c2)oc2cc(O)cc(O)c12 [QUERCETIN]
Response: 1.4 °C

Query: Return reported ΔTm; argument: CCOc1ccc(/C=C2/SC(=O)N(CCN)C2=O)cc1 [HIAZOLIDINEDIONE1]
Response: 0.3 °C

Query: Return reported ΔTm; argument: N#CC(C#N)=Cc1ccc(O)c(O)c1 [TYRPHOSTIN 23]
Response: 0.1 °C

Query: Return reported ΔTm; argument: Nc1cccc(-c2cc3c(Oc4cccc(O)c4)ncnc3[nH]2)c1
Response: 0.8 °C

Query: Return reported ΔTm; argument: O=[N+]([O-])c1ccc(-c2nc(-c3ccc(F)cc3)c(-c3ccncc3)[nH]2)cc1
Response: 0 °C

Query: Return reported ΔTm; argument: N#C/C(=C1/Nc2ccccc2S1)c1ccnc(NCCc2cccnc2)n1
Response: 1.3 °C

Query: Return reported ΔTm; argument: Cc1ccc(NC(=O)c2ccc(CN3CCN(C)CC3)cc2)cc1Nc1nccc(-c2cccnc2)n1
Response: 0.4 °C

Query: Return reported ΔTm; argument: COc1cc(O)c2c(c1)oc(=O)c1c3cc(O)c(O)cc3oc21 [WEDELOLACTONE]
Response: 0 °C

Query: Return reported ΔTm; argument: Nc1ncnc2c1c(I)cn2[C@@H]1O[C@H](CO)[C@@H](O)[C@H]1O
Response: 0.1 °C

Query: Return reported ΔTm; argument: O=C1NC(=O)C(c2cn(CCCn3ccnc3)c3ccccc23)=C1Nc1ccccc1
Response: 0.6 °C

Query: Return reported ΔTm; argument: O=c1sn(Cc2ccccc2)c(=S)n1Cc1ccccc1
Response: 0.6 °C

Query: Return reported ΔTm; argument: NCCNS(=O)(=O)c1cccc2c(Cl)cccc12
Response: 0 °C

Query: Return reported ΔTm; argument: O=C1NC(=O)c2c1c1c3ccccc3[nH]c1n1cncc21 [ISOGRANULATIMIDE]
Response: 1.7 °C

Query: Return reported ΔTm; argument: NC(=O)c1ccc2[nH]c(-c3ccc(Oc4ccc(Cl)cc4)cc3)nc2c1
Response: 0.5 °C

Query: Return reported ΔTm; argument: OC[C@H]1O[C@@H](n2cnc3cc(Cl)c(Cl)cc32)[C@H](O)[C@@H]1O
Response: -0.1 °C

Query: Return reported ΔTm; argument: C#Cc1cccc(Nc2ncnc3cc(OCCOC)c(OCCOC)cc23)c1
Response: 0.3 °C

Query: Return reported ΔTm; argument: CCOc1cc2ncnc(Nc3cccc(Br)c3)c2cc1OCC
Response: 0 °C

Query: Return reported ΔTm; argument: O=C1Nc2ccc(I)cc2/C1=C1/Nc2ccccc2/C1=N\O
Response: 0.1 °C

Query: Return reported ΔTm; argument: O=C1NC(=O)c2c1c1c3ccccc3n3c1c1c2c2ccccc2n1C1CCC3O1
Response: -0.1 °C

Query: Return reported ΔTm; argument: CCOC(=O)c1c(C)[nH]c(/C=C2\C(=O)Nc3ccccc32)c1C
Response: -1.7 °C

Query: Return reported ΔTm; argument: N=C(N)NCCNS(=O)(=O)c1cccc2cnccc12
Response: 0.3 °C

Query: Return reported ΔTm; argument: CN(C)c1ccc(CC2C(=O)Nc3ccccc32)cc1 (stereo not drawn)
Response: -0.2 °C

Query: Return reported ΔTm; argument: CCN1/C(=C/C(C)=O)Sc2ccc(OC)cc21
Response: 0.3 °C

Query: Return reported ΔTm; argument: O=c1cc(N2CCOCC2)oc2c1ccc1ccccc12
Response: 0 °C

Query: Return reported ΔTm; argument: COc1cc2ncnc(Nc3ccc(NC(=O)c4ccccc4)cc3)c2cc1OC [ANILINOQUINAZOLINE1]
Response: 0.5 °C

Query: Return reported ΔTm; argument: CC(C)(C)n1nc(-c2ccc(Cl)cc2)c2c(N)ncnc21
Response: 0 °C

====

Molecular target: 5'-AMP-activated protein kinase catalytic subunit alpha-2 (Homo sapiens) (UniProt P54646)
Sequence (P54646 whole entry, looked up): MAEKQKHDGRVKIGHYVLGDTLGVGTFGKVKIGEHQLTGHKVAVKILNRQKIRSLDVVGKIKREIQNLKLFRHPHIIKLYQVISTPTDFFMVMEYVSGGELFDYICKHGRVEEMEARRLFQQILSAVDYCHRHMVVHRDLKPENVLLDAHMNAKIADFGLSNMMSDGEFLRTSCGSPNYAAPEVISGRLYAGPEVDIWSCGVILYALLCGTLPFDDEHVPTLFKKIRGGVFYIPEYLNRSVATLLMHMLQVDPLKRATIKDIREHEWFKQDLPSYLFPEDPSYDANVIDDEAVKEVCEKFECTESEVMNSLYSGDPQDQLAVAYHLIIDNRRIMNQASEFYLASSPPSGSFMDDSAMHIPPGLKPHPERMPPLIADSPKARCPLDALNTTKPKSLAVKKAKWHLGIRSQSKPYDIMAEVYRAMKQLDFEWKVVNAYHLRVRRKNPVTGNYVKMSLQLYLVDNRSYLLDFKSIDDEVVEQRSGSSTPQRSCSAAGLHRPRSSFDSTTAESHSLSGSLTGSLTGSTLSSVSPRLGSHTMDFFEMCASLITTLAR
Would you mind labelling by ΔTm? At or over 0.4 °C is Condition met, under is Condition not met.

Query: Does the reported ΔTm for CN(C)C[C@@H]1CCn2cc(c3ccccc32)C2=C(C(=O)NC2=O)c2cn(c3ccccc23)CCO1 fall at or above the 0.4 °C mark?
Response: Condition met

Query: Does the reported ΔTm for Cc1nc(N)sc1-c1ccnc(Nc2cccc([N+](=O)[O-])c2)n1 fall at or above the 0.4 °C mark?
Response: Condition met

Query: Does the reported ΔTm for COc1cc2ncnc(Nc3cccc(O)c3)c2cc1OC fall at or above the 0.4 °C mark?
Response: Condition not met

Query: Does the reported ΔTm for Cl.Cn1cc(C2=C(c3ccc4cc5n(c4c3)CCC(CN)C5)C(=O)NC2=O)c2ccccc21 (stereo not given) fall at or above the 0.4 °C mark?
Response: Condition not met

Query: Does the reported ΔTm for O=C1C=C2C(=Nc3c2c2c(c4c3=NC3=C4CCC=C3)C=NC=2)CC1 fall at or above the 0.4 °C mark?
Response: Condition not met

Query: Does the reported ΔTm for CC(C)(C)n1nc(-c2cccc3ccccc23)c2c(N)ncnc21 fall at or above the 0.4 °C mark?
Response: Condition not met

Query: Does the reported ΔTm for COc1cc2ncnc(Nc3ccc(F)c(Cl)c3)c2cc1OCCCN1CCOCC1 fall at or above the 0.4 °C mark?
Response: Condition not met

Query: Does the reported ΔTm for O=C1NC(=O)c2c1c1c3ccccc3n3c1c1c2c2ccccc2n1C1CCC3O1 fall at or above the 0.4 °C mark?
Response: Condition met

====

measured.endpoint: ΔTm (°C)
I only need the number, in °C, no unit after it.

Query: Could you share what ΔTm was measured for O=c1c(-c2ccc(O)cc2)coc2cc(O)cc(O)c12 , tested on 5'-AMP-activated protein kinase catalytic subunit alpha-2 (Homo sapiens) (UniProt P54646)?
Response: 1.6

Query: Could you share what ΔTm was measured for O=C1C(Cl)=C(N2C(=O)CCC2=O)C(=O)c2ccccc21 , tested on 5'-AMP-activated protein kinase catalytic subunit alpha-2 (Homo sapiens) (UniProt P54646)?
Response: 0.6

Query: Could you share what ΔTm was measured for CC(C)(C)c1nc2c3ccc(F)cc3c3c(=O)[nH]ccc3c2[nH]1 , tested on 5'-AMP-activated protein kinase catalytic subunit alpha-2 (Homo sapiens) (UniProt P54646)?
Response: 6.4

Query: Could you share what ΔTm was measured for CC(C)n1cnc2c(NCc3ccccc3)nc(NCCCO)nc21 , tested on 5'-AMP-activated protein kinase catalytic subunit alpha-2 (Homo sapiens) (UniProt P54646)?
Response: -0.7

Query: Could you share what ΔTm was measured for COc1ccc2c(c[n+](C)c3c4cc5c(cc4ccc23)OCO5)c1OC [CHELERYTHRINE CHLORIDE] , tested on 5'-AMP-activated protein kinase catalytic subunit alpha-2 (Homo sapiens) (UniProt P54646)?
Response: -1.3

Query: Could you share what ΔTm was measured for c1ccc(-c2n[nH]c3c2oc2ccccc23)cc1 , tested on 5'-AMP-activated protein kinase catalytic subunit alpha-2 (Homo sapiens) (UniProt P54646)?
Response: 0.5

Query: Could you share what ΔTm was measured for Cn1cnc2c(NCc3ccccc3)nc(NCCO)nc21 , tested on 5'-AMP-activated protein kinase catalytic subunit alpha-2 (Homo sapiens) (UniProt P54646)?
Response: 0.2

Query: Could you share what ΔTm was measured for COc1ccc(S(=O)(=O)N(CCO)c2ccccc2CN(C)C/C=C/c2ccc(Cl)cc2)cc1 , tested on 5'-AMP-activated protein kinase catalytic subunit alpha-2 (Homo sapiens) (UniProt P54646)?
Response: -1

Query: Could you share what ΔTm was measured for Nc1ncnc2c1c(I)cn2[C@@H]1O[C@H](CO)[C@@H](O)[C@H]1O , tested on 5'-AMP-activated protein kinase catalytic subunit alpha-2 (Homo sapiens) (UniProt P54646)?
Response: 1

Query: Could you share what ΔTm was measured for O=C1Nc2ccc(I)cc2/C1=C\c1cc(Br)c(O)c(Br)c1 , tested on 5'-AMP-activated protein kinase catalytic subunit alpha-2 (Homo sapiens) (UniProt P54646)?
Response: 1
